# Tgt: SGK1 (Homo sapiens, UniProt O00141)
# Sequence (O00141 1-431): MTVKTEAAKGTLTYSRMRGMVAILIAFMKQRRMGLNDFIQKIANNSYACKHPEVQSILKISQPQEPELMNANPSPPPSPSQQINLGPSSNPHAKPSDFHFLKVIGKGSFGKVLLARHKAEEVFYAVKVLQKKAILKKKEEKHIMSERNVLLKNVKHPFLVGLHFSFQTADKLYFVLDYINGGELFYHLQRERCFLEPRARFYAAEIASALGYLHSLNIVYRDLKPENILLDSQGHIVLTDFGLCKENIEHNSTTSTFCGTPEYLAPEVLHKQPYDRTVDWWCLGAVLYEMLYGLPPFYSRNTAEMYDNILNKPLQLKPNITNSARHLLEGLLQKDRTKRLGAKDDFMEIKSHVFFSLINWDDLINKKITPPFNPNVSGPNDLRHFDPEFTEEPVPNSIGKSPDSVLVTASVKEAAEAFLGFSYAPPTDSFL
# Assay Overview: SGK1 inhibition Assay B (Echo mass spectrometry of phosphorylated peptide product)
# Assay type: biochemical
# Condition: 60 min at room temperature
pIC50: −log10 of the molar value. Structures can show the parent of a compound that is named as a salt.
Threshold check on pIC50: at or above 9 gives true (1), strictly below gives false (0).

Previously resolved entries follow.
Record Cc1nc(O[C@H]2CC[C@]3(CCCN3C)CC2)c(C(=O)N[C@@H]2CCCN(c3cc(-c4ccc(C(N)=O)c(F)c4)n4ncnc(N)c34)C2)s1 [Example 931, TFA salt] ; criterion: pIC50 no lower than 9. Met? true (1)

Record CC(C)N1CC2(CN(c3cccc(C(=O)N[C@@H]4CCCN(c5cc(-c6ccc(-n7cnnn7)c(F)c6)n6ncnc(N)c56)C4)n3)C2)C1 ; criterion: pIC50 no lower than 9. Met? false (0)

Record CN1[C@@H]2CC[C@H]1C[C@H](Oc1cc(Cl)sc1C(=O)N[C@@H]1CCCN(c3cc(-c4ccc(-n5cccn5)cc4)n4ncnc(N)c34)C1)C2 ; criterion: pIC50 no lower than 9. Met? false (0)

Record CN1[C@@H]2CC[C@H]1C[C@H](Oc1cc(Cl)sc1C(=O)N[C@@H]1CCCN(c3cc(-c4ccnn4C)n4ncnc(N)c34)C1)C2 ; criterion: pIC50 no lower than 9. Met? false (0)

---
Record Cc1nc(OC2CCC(NC(C)(C)C)CC2)c(C(=O)N[C@@H]2CCCN(c3cc(-c4ccc(S(C)(=O)=O)cn4)n4ncnc(N)c34)C2)s1 (some centres unmarked) ; criterion: pIC50 no lower than 9. Met? false (0)

Record Cc1nc(O[C@@H]2C[C@H]3CC[C@@H](C2)N3C)c(C(=O)N[C@@H]2CCCN(c3cc(-c4csc(C(C)O)c4)n4ncnc(N)c34)C2)s1 (some centres unmarked) [Example 928, TFA salt] ; criterion: pIC50 no lower than 9. Met? true (1)

Record CC(C)N1CC2(CN(c3cccc(C(=O)N[C@@H]4CCCN(c5cc(-c6ccc(S(C)(=O)=O)nc6)n6ncnc(N)c56)C4)n3)C2)C1 ; criterion: pIC50 no lower than 9. Met? false (0)

Record CCOC1=C(C(=O)N[C@@H]2CCCN(c3cc(C4=CCN(C(C)=O)C4)n4ncnc(N)c34)C2)CN(c2ccc(OC)cc2)C1=O ; criterion: pIC50 no lower than 9. Met? false (0)

Record CN1CCN(c2cccc(C(=O)N[C@@H]3CCCN(c4cc(-c5ccc6[nH]ncc6c5)n5ncnc(N)c45)C3)n2)CC1 ; criterion: pIC50 no lower than 9. Met? false (0)

###

# Tgt: full length SGK1 (Homo sapiens)
# Construct: 125 μM full length SGK1 (Life Technologies Part #PR7358A); purchased Life Technologies PR7358A
# Sequence (O00141 1-431): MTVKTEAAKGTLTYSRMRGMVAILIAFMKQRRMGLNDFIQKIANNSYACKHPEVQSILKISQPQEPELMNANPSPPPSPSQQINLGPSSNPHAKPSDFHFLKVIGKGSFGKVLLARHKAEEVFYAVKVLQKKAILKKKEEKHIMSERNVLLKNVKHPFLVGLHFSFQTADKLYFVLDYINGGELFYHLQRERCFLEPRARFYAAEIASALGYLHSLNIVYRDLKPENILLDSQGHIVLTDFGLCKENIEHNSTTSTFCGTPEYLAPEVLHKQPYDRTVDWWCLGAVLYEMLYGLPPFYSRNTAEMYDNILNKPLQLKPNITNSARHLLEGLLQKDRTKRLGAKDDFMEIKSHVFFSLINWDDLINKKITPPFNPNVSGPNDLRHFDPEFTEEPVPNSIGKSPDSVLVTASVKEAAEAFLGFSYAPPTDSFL
# Assay Overview: SGK1 inhibition Assay A (Caliper LabChip electrophoretic separation of fluorescent peptide substrate and phosphorylated product)
# Format: biochemical
# Condition: Assay A; 20 μM ATP, 40 min incubation; read-out: SGK1 IC50
Counter-ions that a name gives are not always drawn.
This section presents compounds with their documented log10 of IC50 values.
Use the decimal logarithm of IC50 (nM).

Give reported log10 of IC50 value for CN1CCN(CCOc2cc(C(F)F)sc2C(=O)N[C@@H]2CCCN(c3cc(-c4ccnc(C(F)F)c4)n4ncnc(N)c34)C2)CC1 0.60

We next turn to a different compound, shown below.
Give reported log10 of IC50 value for CS(=O)(=O)c1ccc(-c2cc(N3CCC[C@@H](NC(=O)c4ccns4)C3)c3c(N)ncnn23)cc1 [Example 41, TFA] 0.70

###

# Tgt: full length SGK1 (Homo sapiens)
# Construct: 125 μM full length SGK1 (Life Technologies Part #PR7358A); purchased Life Technologies PR7358A
# Assay Overview: SGK1 inhibition Assay A (Caliper LabChip electrophoretic separation of fluorescent peptide substrate and phosphorylated product)
# Type: biochemical
# Condition: Assay A; 20 μM ATP, 40 min incubation; read-out: SGK1 IC50
This section presents compounds with their documented pIC50 values.
Please keep in mind that pIC50 is minus log10 of the molar concentration; only the number is needed.

Give reported pIC50 value for CC(=O)N1CC=C(c2cc(N3CCC[C@@H](NC(=O)C4CC5(C4)CC(F)(F)C5)C3)c3c(N)ncnn23)C1 6.12

Give reported pIC50 value for CN(C)CCOc1cc(C(F)F)sc1C(=O)N[C@@H]1CCCN(c2cc(-c3ccc(C=O)cc3)n3ncnc(N)c23)C1 9.00

Give reported pIC50 value for CN1CCN(c2cccc(C(=O)N[C@@H]3CCCN(c4cc(-c5ccnn5C)n5ncnc(N)c45)C3)n2)CC1 7.06

Give reported pIC50 value for COC(=O)N1CC=C(c2cc(N3CCC[C@@H](NC(=O)c4sc(Cl)cc4OCCN4CCC(F)(F)CC4)C3)c3c(N)ncnn23)C1 7.74

Give reported pIC50 value for CC(=O)N1CC=C(c2cc(N3CCC[C@@H](NC(=O)c4cccc(OCCN5CCOCC5)n4)C3)c3c(N)ncnn23)C1 7.60

We next turn to a different compound, shown below.
Give reported pIC50 value for N#Cc1ccc2[nH]nc(C(=O)N[C@@H]3CCCN(c4cc(-c5cncnc5)n5ncnc(N)c45)C3)c2c1 6.56

###

This section presents compounds with their documented log10(IC50) values.
# Tgt: full length SGK1 (Homo sapiens)
# Construct: 125 μM full length SGK1 (Life Technologies Part #PR7358A); purchased Life Technologies PR7358A
# Sequence (O00141 1-431): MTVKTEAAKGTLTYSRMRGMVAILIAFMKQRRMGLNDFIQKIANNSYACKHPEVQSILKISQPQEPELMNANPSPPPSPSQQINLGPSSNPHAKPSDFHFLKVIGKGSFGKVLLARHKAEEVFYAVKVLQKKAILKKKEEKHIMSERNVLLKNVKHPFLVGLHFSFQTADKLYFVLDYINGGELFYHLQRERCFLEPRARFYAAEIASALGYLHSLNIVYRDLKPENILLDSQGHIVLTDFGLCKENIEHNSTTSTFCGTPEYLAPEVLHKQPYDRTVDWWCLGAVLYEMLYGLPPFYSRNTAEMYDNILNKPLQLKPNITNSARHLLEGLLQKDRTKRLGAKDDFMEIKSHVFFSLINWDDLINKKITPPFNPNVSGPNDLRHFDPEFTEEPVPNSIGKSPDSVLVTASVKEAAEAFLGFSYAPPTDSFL
# Assay Overview: SGK1 inhibition Assay A (Caliper LabChip electrophoretic separation of fluorescent peptide substrate and phosphorylated product)
# Type: biochemical
# Condition: Assay A; 20 μM ATP, 40 min incubation; read-out: SGK1 IC50
Where a name gives a salt, the structure may show the parent alone.
Use the decimal logarithm of IC50 (nM).

Below: 8 compounds and their reported log10(IC50).
Give reported log10(IC50) value for CS(=O)(=O)c1ccc(-c2cc(N3CCC[C@@H](NC(=O)c4ccc5c(c4)CC5)C3)c3c(N)ncnn23)cc1 [Example 83, TFA] 1.68

Give reported log10(IC50) value for Nc1ncnn2c(-c3ccc(=O)n(CC(F)F)c3)cc(N3CCC[C@@H](NC(=O)c4sc(Cl)cc4OCC(=O)N4CCCC4)C3)c12 [Example 422] 1.18

Give reported log10(IC50) value for Nc1ncnn2c(-c3cncnc3)cc(N3CCC[C@@H](NC(=O)c4sc5ccccc5c4OC4CCNCC4)C3)c12 [Example 657] 1.71

Give reported log10(IC50) value for COCCOc1cc(Cl)sc1C(=O)N[C@@H]1CCCN(c2cc(C3=CCN(S(C)(=O)=O)C3)n3ncnc(N)c23)C1 [Example 140] 0.78

Give reported log10(IC50) value for COc1ccc(C)cc1C(=O)N[C@@H]1CCCN(c2cc(-c3ccc(S(C)(=O)=O)cc3)n3ncnc(N)c23)C1 [Example 57, TFA] 2.05

Give reported log10(IC50) value for CN(C)CCOc1cc(C(F)F)sc1C(=O)N[C@@H]1CCCN(c2cc(-c3ccc(C#N)c(F)c3)n3ncnc(N)c23)C1 [Example 313] 0.60

Give reported log10(IC50) value for COC(=O)N1CC=C(c2cc(N3CCC[C@@H](NC(=O)c4sc5ccccc5c4OC4CCNCC4)C3)c3c(N)ncnn23)C1 [Example 652] 1.00

Give reported log10(IC50) value for CC(=O)N1CC=C(c2cc(N3CCC[C@@H](NC(=O)c4ccnc(OCCN5CCOCC5)c4)C3)c3c(N)ncnn23)C1 [Example 707] 1.83

---
Give reported log10(IC50) value for Cc1nc(OCCN(C)C)c(C(=O)N[C@@H]2CCCN(c3cc(-c4ccnc(C#N)c4)n4ncnc(N)c34)C2)s1 [Example 356] 1.11

Give reported log10(IC50) value for COc1ccc(OC(=O)N[C@@H]2CCCN(c3cc(C4=CCN(C(C)=O)C4)n4ncnc(N)c34)C2)cc1 [Example 812, TFA salt] 2.99

Give reported log10(IC50) value for N#Cc1ncn(-c2ccc(-c3cc(N4CCC[C@@H](NC(=O)c5ccc(Cl)s5)C4)c4c(N)ncnn34)cn2)n1 [Example 250, TFA] 0.48

Give reported log10(IC50) value for CCn1cc(-c2cc(N3CCC[C@@H](NC(=O)c4cccc(N5CCN(C)CC5)n4)C3)c3c(N)ncnn23)ccc1=O [Example 799] 0.48

Give reported log10(IC50) value for CS(=O)(=O)c1ccc(-c2cc(N3CCC[C@@H](NS(=O)(=O)c4ccccc4)C3)c3c(N)ncnn23)cc1 [Example 274] 2.96

Give reported log10(IC50) value for Cn1cc(-c2cc(N3CCC[C@@H](NC(=O)c4ccc(Cl)s4)C3)c3c(N)ncnn23)c(C2CC2)n1 [Example 203, TFA] 1.28

Attribution: patent US20260250290A1
